Target: Recombinant KAT6A/MOZ (488-778) protein (Homo sapiens)
Construct: Recombinant KAT6A/MOZ (488-778) protein (Active motif, Catalog #81223); purchased Active Motif 81223
Assay: Kat6a AlphaLISA Inhibition Screening Assay
Type: biochemical
Conditions: 60′ pre-incubation; Table 3; read-out: Kat6A Biochemical assay: IC50
result_type: IC50

Reference set, count: 5
• C#CC(=O)NCc1cnn(Cc2cc(OC)c3c(NS(=O)(=O)c4cc(C(=O)NC)ccc4OC)noc3c2)c1 [compound 85] = ≤ 10 µM
• C#CC(=O)N1CCCN(c2cnc(-c3cc(OC)c4c(NS(=O)(=O)c5cc(CC)ccc5OC)noc4c3)s2)CC1 [compound 104] = ≤ 10 µM
• C#CC(=O)NCCOCc1cc(OC)c2c(NS(=O)(=O)c3cc(CC)ccc3OC)noc2c1 [compound 88] = ≤ 10 µM
• COc1cccc(OC)c1S(=O)(=O)Nc1noc2cc(-c3cccc(N4CCN(C(=O)CCl)CC4)c3)cc(OC)c12 [compound 73] = ≤ 10 µM
• COc1ccccc1S(=O)(=O)Nc1noc2cc(Cn3cc(CNS(=O)(=O)c4cc(F)c(F)c(F)c4)cn3)cc(OC)c12 [compound 80] = ≤ 10 µM

Enquiry: Need IC50 of COc1ccccc1S(=O)(=O)Nc1noc2cc(Cn3cc(CNS(=O)(=O)c4ccc(Cl)nc4)cn3)cc(OC)c12 [compound 83] , thanks.
Return: ≤ 10 µM

Enquiry: Need IC50 of C#CC(=O)N1CC[C@@H](OCc2cc(OC)c3c(NS(=O)(=O)c4cc(CC)ccc4OC)noc3c2)C1 [compound 110] , thanks.
Return: ≤ 10 µM

* * *

Target: Recombinant KAT6A/MOZ (488-778) protein (Homo sapiens, UniProt Q92794)
Construct: Recombinant KAT6A/MOZ (488-778) protein (Active motif, Catalog #81223); purchased Active Motif 81223
Sequence (Q92794 488-778): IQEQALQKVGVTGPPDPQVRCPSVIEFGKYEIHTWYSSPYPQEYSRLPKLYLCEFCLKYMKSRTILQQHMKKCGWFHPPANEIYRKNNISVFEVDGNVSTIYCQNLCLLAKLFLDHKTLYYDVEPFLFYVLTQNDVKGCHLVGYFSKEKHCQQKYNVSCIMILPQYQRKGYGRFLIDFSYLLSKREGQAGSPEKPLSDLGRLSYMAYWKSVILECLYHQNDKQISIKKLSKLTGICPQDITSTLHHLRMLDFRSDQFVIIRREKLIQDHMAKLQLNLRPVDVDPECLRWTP
Assay: Kat6a AlphaLISA Inhibition Screening Assay
Type: biochemical
Settings: 60′ pre-incubation; Table 2; read-out: Kat6A biochemical assay: IC50
result_type: IC50

Reference set, count: 6
• C#CC(=O)NCc1cnn(Cc2cc(OC)c3c(NS(=O)(=O)c4ccc(C(=O)OC)cc4)noc3c2)c1 [Synthetic Example 38] = ≤ 10 µM
• C#CC(=O)NCc1cnn(Cc2cc(OC)c3c(NS(=O)(=O)c4ccccc4C(=O)NC)noc3c2)c1 = ≤ 10 µM
• C#CC(=O)N1Cc2cnn(Cc3cc(OC)c4c(NS(=O)(=O)c5c(OC)cccc5OC)noc4c3)c2C1 [Synthetic Example 25A] = ≤ 10 µM
• C#CC(=O)NC1CCN(Cc2cc(OC)c3c(NS(=O)(=O)c4ccccc4OC)noc3c2)C1 (stereo not shown) [Synthetic Example 48] = ≤ 10 µM
• C=CC(=O)NCc1ccnc(-c2cc(C)cc(C(=O)NNS(=O)(=O)c3c(OC)cccc3OC)c2)c1 [Synthetic Example 15] = ≤ 10 µM
• COc1ccccc1S(=O)(=O)Nc1noc2cc(Cn3cc(CNS(=O)(=O)c4c(F)c(F)c(F)c(F)c4F)cn3)cc(OC)c12 = ≤ 10 µM

Next compound, please.
Enquiry: Need IC50 of COc1ccccc1S(=O)(=O)Nc1noc2cc(CN3CCC(C(=O)NCC#N)CC3)cc(OC)c12 [Synthetic Example 63] , thanks.
Return: > 10 µM

// data source = patent US11976075B2
